Cited source: the supplement of paper PMC10065799

biological target: c-Src SH2; assay: SH2 binding enrichment of the phosphorylated peptide, bacterial display (enrichment ratio); higher = better substrate or ligand; peptides without Tyr show the background
Measure name: SH2 binding enrichment

Take a look at these entries with their results.
LGRKLYSIAAP [ABHD12_Y345]	0.593
NLAAQYTTVGR [SGSH_Y240_D235N]	4.5
RVLHNYLVWRV [ECEL1_Y400]	1.73
RALLNYIASKF [GSTA3_Y74_I71L_YF]	0.49

I. KASIMYPSSNC [CXCL11_Y52_N55S]
II. LLANAYIFDVQ [L1CAM_Y418_V421D_YF]
From the recorded data, which exceeds the other in SH2 binding enrichment: I or II ? // output: label of the selected item II
(II: 0.913, I: 0.565)

----------
target: FGFR1 (UniProt P11362); assay: phosphorylation enrichment, bacterial display (enrichment ratio); higher = better substrate or ligand; peptides without Tyr show the background
Sequence (P11362 whole entry, looked up): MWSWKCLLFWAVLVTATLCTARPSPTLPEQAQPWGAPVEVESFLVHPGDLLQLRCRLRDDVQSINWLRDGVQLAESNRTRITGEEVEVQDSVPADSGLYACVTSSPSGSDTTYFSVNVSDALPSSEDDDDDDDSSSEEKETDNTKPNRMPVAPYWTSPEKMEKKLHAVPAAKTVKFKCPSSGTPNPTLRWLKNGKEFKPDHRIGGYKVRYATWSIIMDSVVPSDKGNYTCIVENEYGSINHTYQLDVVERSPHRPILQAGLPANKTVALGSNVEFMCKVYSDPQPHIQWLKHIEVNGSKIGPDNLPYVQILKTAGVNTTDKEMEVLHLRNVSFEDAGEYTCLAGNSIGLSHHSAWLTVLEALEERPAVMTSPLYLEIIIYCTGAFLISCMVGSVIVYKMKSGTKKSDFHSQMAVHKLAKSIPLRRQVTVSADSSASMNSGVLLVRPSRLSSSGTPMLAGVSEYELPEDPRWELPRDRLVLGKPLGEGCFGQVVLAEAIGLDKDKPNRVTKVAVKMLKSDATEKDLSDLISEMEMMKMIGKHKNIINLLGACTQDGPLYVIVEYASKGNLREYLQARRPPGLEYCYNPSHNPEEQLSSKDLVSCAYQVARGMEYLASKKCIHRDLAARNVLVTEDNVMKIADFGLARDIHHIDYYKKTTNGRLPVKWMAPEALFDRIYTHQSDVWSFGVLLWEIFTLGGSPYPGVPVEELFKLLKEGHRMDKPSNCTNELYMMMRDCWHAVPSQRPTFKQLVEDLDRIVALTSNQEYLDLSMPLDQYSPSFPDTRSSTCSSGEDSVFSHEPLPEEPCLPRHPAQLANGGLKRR
phosphorylation enrichment listing for selected sequences.
Field format: numeric only.

See these solved cases before continuing.
GYDHSYYFIAT [ESD_Y262]	11.1
FVPSFYHAFSG [ACTN4_Y265_S262P_YF]	0.796
SLFQFYFQQKG [CHKB_Y381_R377L]	0.521
SYKNKYGMVAQ [APOB_Y276]	0.385
LKGQVDILGRE [ASS1_Y359_Y359D]	0.578

Turning now to a further sequence:
Reported phosphorylation enrichment for HRGFLYLAIEF [TEK_Y899_Y897F_YF] : what is it? 0.515

----------
molecular target: SHP2-C SH2; assay: SH2 binding enrichment of the phosphorylated peptide, bacterial display (enrichment ratio); higher = better substrate or ligand; peptides without Tyr show the background
Measure name: SH2 binding enrichment

Examples with answers:
ENKGVYVLMSG [IVD_Y277]	0.892
PPNSPYIGSSP [KCNT1_Y740]	0.557

1. FSEVRYMKEPY [HIPK4_Y170_V171M]
2. ARGMEYLASKK [FGFR1_Y613]
3. RGVTHYILQTF [SLC39A4_Y359]
4. NLAAQYTTVGR [SGSH_Y240_D235N]
Order the records so the highest SH2 binding enrichment appears first and the lowest last. I would appreciate it if you listed the labels in the requested order. 4, 3, 1, 2

a. HMEAVYIDIAD [PITPNA_Y140_V136M]
b. IHETTHNSIMK [ACTA1_Y281_Y281H]
c. VISNAYVDLAP [HSD17B4_Y602]
d. LAGRYYALKSM [CKB_Y174]
// smallest SH2 binding enrichment at index 0, largest at the end Put the labels in the requested order and write them down. b, a, c, d
(b: 0.537, a: 0.847, c: 1.21, d: 2.14)

I. PPSELYFVKVD [TERT_Y707_P704S]
II. FGSVDCWEKFF [EEF1AKNMT_Y16_Y16C]
// compare: I vs II , metric SH2 binding enrichment, want the smaller Refer to your chosen entry by its label in the reply. I
(I: 0.679, II: 1.03)

----------
target: c-Src SH2; assay: SH2 binding enrichment of the phosphorylated peptide, bacterial display (enrichment ratio); higher = better substrate or ligand; peptides without Tyr show the background
Measure name: SH2 binding enrichment

Solved cases (6 shown):
RLRVVYPWTQR [HBB_Y36_L33R]	0.636
PGQRVYVVAES [SHH_Y316_R321S]	0.55
SLIDMYSKVLD [OPA1_Y268_E270K]	1.6
TAIFIYIRPKA [OR10C1_Y258_L255I]	0.522
NTVLGYFIGRI [GARS1_Y408]	0.637
LNPFIYSLRNR [OR1A1_Y288]	0.486

1. LANNEYFFQVC
2. GGFTWYCDGKK [PROS1_Y266_C265W_YF]
Consider entries 1 and 2 . Which has the numerically lower SH2 binding enrichment? Refer to your chosen entry by its label in the reply. 2

P. LDFPEYDGVDR [CASQ1_Y43]
Q. PPSELYFVKVD [TERT_Y707_P704S]
Of the two listed items, which has the higher SH2 binding enrichment? First: P Second: Q Mark your selection by writing its label. P

A. KGRAGYTTVAV [RET_Y752]
B. EAMPDYKKQLR [SPATA18_Y229_S227P]
Could you kindly indicate whether A or B has the higher SH2 binding enrichment value? Provide the label of your selected option as the answer. A

I. QGIFGYHHFMQ [UFSP2_Y287_YF]
II. ELTAKYLNFFQ [P3H4_Y181_YF]
III. DFPMGYPSFLA [TBCK_Y153_I151M_YF]
IV. CTLLPYYSARV [DGKE_Y269]
Endpoint returns the given sequences ordered by ascending SH2 binding enrichment. Form field (ranking): labels in requested order. III, II, I, IV
